Assign pest or weed control at 100 g/ha to each entry below.
System: caterpillars of the armyworm (Spodoptera frugiperda)
method.summary: Spodoptera frugiperda test (SPODFR spray treatment)
Assay type: in vivo
study.conditions: Spodoptera frugiperda, in Zea mays, foliar, read-out: effect in % (caterpillars killed)

[[record]]
compound = "Cc1cc(I)cc(C(N)=O)c1NC(=O)c1cc(Cn2nnc(C(F)(F)C(F)(F)C(F)(F)F)n2)nn1-c1ncccc1Cl"
result = "≥ 80%"

[[record]]
compound = "Cc1cc(Cl)cc(C(=O)NC(C)(C)C)c1NC(=O)c1cc(C(C)n2nnc(C(F)(F)F)n2)nn1-c1ncccc1Cl (stereo not shown)"
result = "≥ 80%"

[[record]]
compound = "CNC(=O)c1cc(F)cc(C)c1NC(=O)c1cc(Cn2nnc(C(F)(F)F)n2)nn1-c1ncccc1Cl"
result = "≥ 80%"

[[record]]
compound = "O=C(NC1CC1)c1cc(Cl)cc(Cl)c1NC(=O)c1cc(Cn2nnnc2C(F)(F)C(F)(F)F)nn1-c1ncccc1Cl"
result = "≥ 80%"

[[record]]
compound = "Cc1cc(Cl)cc(C(=O)NC2CCC2)c1NC(=O)c1cc(Cn2nnc(C(F)(F)F)n2)nn1-c1ncccc1Cl"
result = "≥ 80%"


Hi team, please reply with pest or weed control at 100 g/ha for each item in this list.
1. Cc1cc(Cl)cc(C(=O)NCC2CC2)c1NC(=O)c1cc(Cn2nnc(C(F)(F)F)n2)nn1-c1ncccc1Cl
2. Cc1cc(C#N)cc(C(=O)NC(C)C2CC2)c1NC(=O)c1cc(Cn2nnc(C(F)(F)F)n2)nn1-c1ncccc1Cl (stereo not shown)

A)
≥ 80%
≥ 80%

----------
Exercise: for every item that follows, state its recorded chromatographic logP.
method.summary: log P determination by HPLC (EEC Directive 79/831 Annex V.A8)
Type: physicochemical
study.conditions: by HPLC according to EEC Directive 79/831 Annex V.A8; read-out: log P
Give bare numbers.

[[record]]
smiles_entry = "Cc1cc(I)cc(C(=O)NC(C)C)c1NC(=O)c1cc(Cn2nnc(C(F)(F)C(F)(F)C(F)(F)F)n2)nn1-c1ncccc1Cl"
result_number = 4.48

[[record]]
smiles_entry = "Cc1cc(I)cc(C(=O)NC2CC2)c1NC(=O)c1cc(Cn2nnc(C(F)(F)C(F)(F)C(F)(F)F)n2)nn1-c1ncccc1Cl"
result_number = 4.23

[[record]]
smiles_entry = "Cc1cc(C#N)cc(C(=O)NC2CC2)c1NC(=O)c1cc(Cn2nnc(C(F)(F)C(F)(F)C(F)(F)F)n2)nn1-c1ncccc1Cl"
result_number = 3.58

[[record]]
smiles_entry = "Cc1cc(Cl)cc(C(=O)NC2CC2)c1NC(=O)c1cc(Cn2nnc(C(F)(F)C(F)(F)C(F)(F)F)n2)nn1-c1ncccc1Cl"
result_number = 3.96

[[record]]
smiles_entry = "CNC(=O)c1cc(C#N)cc(C)c1NC(=O)c1cc(Cn2nnc(C(F)(F)C(F)(F)C(F)(F)F)n2)nn1-c1ncccc1Cl"
result_number = 3.43


From here, focus on the item given below.
Q) Look up and state reported chromatographic logP for Cc1cc(C#N)cc(C(=O)NC(C)(C)C)c1NC(=O)c1cc(Cn2nnc(C(F)(F)C(F)(F)C(F)(F)F)n2)nn1-c1ncccc1Cl
A) 4.16

----------
System: caterpillars of the armyworm (Spodoptera frugiperda)
method.summary: Spodoptera frugiperda test (SPODFR spray treatment)
Assay type: in vivo
study.conditions: Spodoptera frugiperda, in Zea mays, foliar, read-out: effect in % (caterpillars killed)
Assignment: determine reported pest or weed control at 100 g/ha for the given compounds.

Use the examples below as a reference point.
[[record]]
smiles_entry = "Cc1cc(I)cc(C(=O)NCC2CC2)c1NC(=O)c1cc(Cn2nnc(C(F)(F)F)n2)nn1-c1ncccc1Cl"
assay_metric = "pest or weed control at 100 g/ha"
result = "≥ 80%"

[[record]]
smiles_entry = "Cc1cc(C#N)cc(C(=O)NC(C)(C)C)c1NC(=O)c1cc(Cn2nnc(C(F)(F)C(F)(F)F)n2)nn1-c1ncccc1Cl"
assay_metric = "pest or weed control at 100 g/ha"
result = "≥ 80%"


Below are 2 compounds. Give each one its pest or weed control at 100 g/ha.
1. CNC(=O)c1cc(Cl)cc(C)c1NC(=O)c1cc(Cn2nnc(C(F)(F)F)n2)nn1-c1ncccc1Cl
2. Cc1cc(I)cc(C(=O)NC(C)(C)C)c1NC(=O)c1cc(Cn2nnnc2C(F)(F)F)nn1-c1ncccc1Cl

A)
["≥ 80%", "≥ 80%"]

// each listed compound needs a value for pest or weed control at 100 g/ha
1. Cc1cc(Br)cc(C(=O)NC(C)C)c1NC(=O)c1cc(Cn2nnc(C(F)(F)C(F)(F)F)n2)nn1-c1ncccc1Cl
2. Cc1cc(C#N)cc(C(=O)NC2(C)CCC2)c1NC(=O)c1cc(Cn2nnc(C(F)(F)F)n2)nn1-c1ncccc1Cl
3. CNC(=O)c1cc(Cl)cc(C)c1NC(=O)c1cc(Cn2nnnc2C(F)(F)C(F)(F)F)nn1-c1ncccc1Cl

A)
["≥ 80%", "≥ 80%", "≥ 80%"]

----------
method.summary: log P determination by HPLC (EEC Directive 79/831 Annex V.A8)
Format: physicochemical
study.conditions: log P
assay.metric: chromatographic logP
One number for each entry.

Please review the entries below; each comes with its answer.
[[record]]
compound = "CNC(=O)c1cc(C)cc(C)c1NC(=O)c1cc(Cn2nnc(C(F)(F)F)n2)nn1-c1ncccc1Cl [Example 78]"
assay_metric = "chromatographic logP"
result_number = 2.81

[[record]]
compound = "CNC(=O)c1cc(Cl)cc(C)c1NC(=O)c1cc(C(C)n2nnc(C(F)(F)F)n2)nn1-c1ncccc1Cl (centres unmarked) [Example 543]"
assay_metric = "chromatographic logP"
result_number = 3.26

[[record]]
compound = "Cc1cc(C#N)cc(C(=O)NC(C)CC(F)(F)F)c1NC(=O)c1cc(Cn2nnc(C(F)(F)F)n2)nn1-c1ncccc1Cl (centres unmarked) [Example 75]"
assay_metric = "chromatographic logP"
result_number = 3.38

[[record]]
compound = "CNC(=O)c1cc(Cl)cc(Cl)c1NC(=O)c1cc(Cn2nnc(C(F)(C(F)(F)F)C(F)(F)F)n2)nn1-c1ncccc1Cl [Example 386]"
assay_metric = "chromatographic logP"
result_number = 3.65

[[record]]
compound = "Cc1cc(C#N)cc(C(N)=O)c1NC(=O)c1cc(Cn2nnc(C(F)(F)F)n2)nn1-c1ncccc1Cl [Example 17]"
assay_metric = "chromatographic logP"
result_number = 2.45


Look up chromatographic logP for the entries below, preserving their order.
1. CCNC(=O)c1cc(I)cc(C)c1NC(=O)c1cc(Cn2nnc(C(F)(F)F)n2)nn1-c1ncccc1Cl [Example 66]
2. Cc1cc(C#N)cc(C(=O)NC2CCCC2)c1NC(=O)c1cc(Cn2nnc(C(F)(F)F)n2)nn1-c1ncccc1Cl [Example 399]
3. Cc1cc(Cl)cc(C(=O)NC(C)(C)C)c1NC(=O)c1cc(C(C)n2nnnc2C(F)(F)F)nn1-c1ncccc1Cl (centres unmarked) [Example 511]

A)
[3.47, 3.37, 3.75]

The following compounds each have a reported value; give each one's chromatographic logP.
1. Cc1cc(C#N)cc(C(=O)NC2CC2)c1NC(=O)c1cc(Cn2nnc(C(F)F)n2)nn1-c1ncccc1Cl [Example 264]
2. CC(C)NC(=O)c1cc(Cl)cc(Cl)c1NC(=O)c1cc(Cn2nnc(C(F)(C(F)(F)F)C(F)(F)F)n2)nn1-c1ncccc1Cl [Example 389]
3. CNC(=O)c1cc(Br)cc(C)c1NC(=O)c1cc(Cn2nnc(C(F)F)n2)nn1-c1ncccc1Cl [Example 296]
4. Cc1cc(C#N)cc(C(=O)N[C@@H]2C[C@H]2CO)c1NC(=O)c1cc(Cn2nnc(C(F)(F)F)n2)nn1-c1ncccc1Cl [Example 76]
5. Cc1cc(C#N)cc(C(=O)NC(C2CC2)C2CC2)c1NC(=O)c1cc(Cn2nnc(C(F)(F)F)n2)nn1-c1ncccc1Cl [Example 87]
6. O=C(NC1CC1)c1cc(Cl)cc(Cl)c1NC(=O)c1cc(Cn2nnc(C(F)(F)C(F)(F)F)n2)nn1-c1ncccc1Cl [Example 151]

A)
1. 2.39
2. 4.12
3. 2.61
4. 2.39
5. 3.65
6. 3.57

----------
method.summary: log P determination by HPLC (EEC Directive 79/831 Annex V.A8)
Type: physicochemical
study.conditions: reversed-phase HPLC, Zorbax Eclipse C18 column, by HPLC according to EEC Directive 79/831 Annex V.A8; read-out: log P
Give chromatographic logP for every item shown.
One number for each entry.

Worked set:
[[record]]
compound = "CNC(=O)c1cc(Br)cc(C)c1NC(=O)c1cc(Cn2nnc(C(F)(F)F)n2)nn1-c1ncccc1C(F)(F)F [Example 228]"
assay_metric = "chromatographic logP"
result_number = 3.28

[[record]]
compound = "Cc1cc(C#N)cc(C(=O)NC(C)C)c1NC(=O)c1cc(Cn2nnc(C(F)(C(F)(F)F)C(F)(F)F)n2)nn1-c1ncccc1Cl [Example 370]"
assay_metric = "chromatographic logP"
result_number = 3.79

[[record]]
compound = "CNC(=O)c1cc(Cl)cc(C)c1NC(=O)c1cc(Cn2nnc(C(F)(F)F)n2)nn1-c1ccc(Cl)cc1Cl [Example 239]"
assay_metric = "chromatographic logP"
result_number = 3.97

[[record]]
compound = "Cc1cc(C#N)cc(C(=O)NC(C)C)c1NC(=O)c1cc(Cn2nnc(C(F)(F)F)n2)nn1-c1ncccc1Br [Example 323]"
assay_metric = "chromatographic logP"
result_number = 3.1

[[record]]
compound = "Cc1cc(Cl)cc(C(=O)NCC#N)c1NC(=O)c1cc(Cn2nnc(C(F)(F)F)n2)nn1-c1ncccc1Br [Example 325]"
assay_metric = "chromatographic logP"
result_number = 2.72


Let us examine a further case.
Q) Read the entry Cc1cc(C#N)cc(C(N)=O)c1NC(=O)c1cc(Cn2nnc(C(F)(F)F)n2)nn1-c1ncccc1Br [Example 324] and write its reported chromatographic logP.
A) 2.46
